Values were extracted from paper PMC9516332.

# System: 134 cancer cell lines
# experimental_details: Cell viability assay (ATPlite, 72 hours), IC50 on cancer cell line panel
# reported_conditions: Homo sapiens, SW626, read-out: IC50 in cell proliferation assay, cell line SW626
pIC50: −log10 of the molar value.
readout_kind: pIC50

query_smiles=COc1ccc(CN2C3CC2CN(c2ccc(-c4cc(OCC(C)(C)O)cn5ncc(C#N)c45)cn2)C3)cn1 measurement_qualifier=< reported=4.50
query_smiles=O=C(c1ccc(F)c(F)c1Nc1ccc(I)cc1F)N1CC(O)([C@@H]2CCCCN2)C1 measurement_qualifier== reported=6.84

###

# measured_on: panel of 255 wild-type kinases (Homo sapiens, UniProt P49761)
# Sequence (P49761 whole entry): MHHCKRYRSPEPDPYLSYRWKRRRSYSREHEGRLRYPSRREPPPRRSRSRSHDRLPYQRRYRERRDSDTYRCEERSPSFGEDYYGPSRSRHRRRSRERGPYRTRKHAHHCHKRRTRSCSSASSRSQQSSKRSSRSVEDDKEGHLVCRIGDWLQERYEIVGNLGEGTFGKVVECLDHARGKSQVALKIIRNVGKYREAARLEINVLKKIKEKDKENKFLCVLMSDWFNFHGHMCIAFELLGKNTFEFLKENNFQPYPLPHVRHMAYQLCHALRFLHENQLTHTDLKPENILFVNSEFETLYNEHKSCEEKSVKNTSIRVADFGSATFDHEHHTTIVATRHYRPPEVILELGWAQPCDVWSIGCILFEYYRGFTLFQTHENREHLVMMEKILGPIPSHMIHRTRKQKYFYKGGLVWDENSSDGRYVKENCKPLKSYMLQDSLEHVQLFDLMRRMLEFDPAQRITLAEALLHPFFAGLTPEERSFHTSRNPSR
# experimental_details: Kinase panel profiling at 1 µmol/L (MSA or IMAP), percentage inhibition
# Assay type: biochemical
# reported_conditions: kinase CLK3; 1 µmol/L single concentration; read-out: %-inhibition at 1 µmol/L, CLK3
# inhibition at 1 µM values compiled below
readout_kind: inhibition at 1 µM (%)

compound="C[C@H]1Oc2cc(cnc2N)-c2c(nn(C)c2C#N)CN(C)C(=O)c2ccc(F)cc21 [lorlatinib]" measured_on="panel of 255 wild-type kinases (Homo sapiens, UniProt P49761)" unit_label=% reported=0.641
compound="COC(=O)N[C@@H](C)CNc1nccc(-c2cn(C(C)C)nc2-c2cc(Cl)cc(NS(C)(=O)=O)c2F)n1 [encorafenib]" measured_on="panel of 255 wild-type kinases (Homo sapiens, UniProt P49761)" unit_label=% reported=4.44
compound="O=C(Nc1cnn2ccc(N3CCC[C@@H]3c3cc(F)ccc3F)nc12)N1CC[C@H](O)C1 [larotrectinib]" measured_on="panel of 255 wild-type kinases (Homo sapiens, UniProt P49761)" unit_label=% reported=-3.43
compound="C[C@H](Nc1ncnc2nc[nH]c12)c1cc2cccc(Cl)c2c(=O)n1-c1ccccc1 [duvelisib]" measured_on="panel of 255 wild-type kinases (Homo sapiens, UniProt P49761)" unit_label=% reported=1.78
compound="CO[C@]1(C(=O)N[C@@H](C)c2ccc(-n3cc(F)cn3)nc2)CC[C@H](c2nc(C)cc(Nc3cc(C)[nH]n3)n2)CC1 [pralsetinib]" measured_on="panel of 255 wild-type kinases (Homo sapiens, UniProt P49761)" unit_label=% reported=9
compound="Cn1cnc2c(F)c(Nc3ccc(Br)cc3Cl)c(C(=O)NOCCO)cc21 [selumetinib]" measured_on="panel of 255 wild-type kinases (Homo sapiens, UniProt P49761)" unit_label=% reported=7.48
compound="CCN1C(=O)N(c2c(F)c(OC)cc(OC)c2F)Cc2cnc3[nH]c(CN4CCOCC4)cc3c21 [pemigatinib]" measured_on="panel of 255 wild-type kinases (Homo sapiens, UniProt P49761)" unit_label=% reported=-1
